Hey, just so you know, these numbers are from the RNAGym collection of RNA variant scans (doi:10.1073/pnas.2313332121).

B1: TPR t1 (parent)
chain: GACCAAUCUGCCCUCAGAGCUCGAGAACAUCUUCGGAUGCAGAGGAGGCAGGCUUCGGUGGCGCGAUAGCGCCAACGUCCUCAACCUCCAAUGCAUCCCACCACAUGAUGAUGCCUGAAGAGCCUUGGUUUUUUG

# Variants of: B1
# ASSAY NAME: polymerase ribozyme fitness, log enrichment relative to wild type (log ratio); higher = more active; in vitro selection for triplet polymerase activity
Classification field: Satisfied = polymerase ribozyme fitness (log ratio) at or over -4; Not satisfied = polymerase ribozyme fitness (log ratio) under -4.

MUTATION STRING | CATEGORY LABEL
C34G G36A U96A C124U | Not satisfied
G61U G120A | Satisfied
A5U C64U C79U G110A A111G U130C | Satisfied
G51C A111G | Not satisfied
U38A G60A A121C G135U | Satisfied
C13U A37C C40A C73A G93A G117U | Satisfied
C64A G117U | Not satisfied
G48A C73A G127C | Satisfied
G10C G36A G71A | Satisfied
A37U U54A A84U | Satisfied
C34U G47A C72U U78A C115A | Not satisfied
G71C A121U | Satisfied
A50G C85G | Satisfied
C4U G57A G61A | Satisfied
G63A U112A C114G G122U | Satisfied
C28A A75G G120U U129G | Not satisfied
G17C C79U | Not satisfied
C70U U131G U133A | Satisfied
C20A G117U | Satisfied
C11G C15U G25C A111C A118G | Not satisfied
A18G | Satisfied
G93U G135C | Satisfied
C11G U96G | Satisfied
U9G C13U C89A G107A C114U | Satisfied
G65C C123G U133A | Not satisfied
U96G G113C | Satisfied
C15U G51U G60A | Not satisfied
A50U A108G | Satisfied
A41U C53U C72A C86A C114U U129G | Not satisfied
C73G A90C | Satisfied
G45U C64U A121G | Satisfied
G69U C89U | Satisfied
C20A G35U | Not satisfied
A41U C101G | Satisfied
C13G A90C A95G | Satisfied
U112G U116A G117U A121G | Satisfied
U78A G93A C97A A121C | Not satisfied
C53G G120U | Satisfied
G61U G77C C79U | Satisfied
A18U A27U C98A G110A | Not satisfied
U92A G128U | Not satisfied
A27C C53U C72U U125A | Satisfied
C8G C97G | Satisfied
G36A C114A | Satisfied
U14G A68G U112G | Not satisfied
